# Tested on: Streptococcus pyogenes SSI-9
# assay_comment: Antibacterial activity assay of bead-derived peptides (three concentrations)
# Assay type: cell-based
# Design: key: +++: inhibition by the 640-fold diluted peptide solution; ++: inhibition by the 160-fold diluted solution; +: inhibition by the 40-fold diluted solution; -: no inhibition
# measurement_parameters: S. pyogenes, bead-derived peptide solution, three concentrations
Where a SMILES comes first, the peptide text is derived from it. [ ]: non-standard residue; d: D form. The star is where a group is joined. NHCH2CH2OH = OCCN*; For = O=C*
measured_property: antibacterial activity

[[record]]
compound = "CC(C)C[C@@H](NC(=O)[C@H](C)NC(=O)CNC(=O)[C@@H](NC=O)C(C)C)C(=O)N[C@@H](C)C(=O)N[C@@H](C(=O)N[C@H](C(=O)N[C@H](CC(C)C)C(=O)N[C@@H](Cc1c[nH]c2ccccc12)C(=O)N[C@@H](C(=O)N[C@@H](Cc1c[nH]c2ccccc12)C(=O)N[C@@H](C(=O)N[C@@H](Cc1c[nH]c2ccccc12)C(=O)N[C@H](CC(C)C)C(=O)N[C@@H](Cc1c[nH]c2ccccc12)C(=O)NCCO)C(C)C)C(C)C)C(C)C)C(C)C [compound 8051] (For-VGA[dL]A[dV]V[dL]W[dV]W[dV]W[dL]W-NHCH2CH2OH)"
measured_property = "antibacterial activity"
test_value = "+"

[[record]]
compound = "CNC(=O)C[C@@H](NC(=O)[C@@H](NC(=O)[C@@H](CC(C)C)NC(=O)[C@H](C)NC(=O)[C@H](NC(=O)[C@H](C)NC(=O)CNC(=O)[C@@H](NC=O)C(C)C)C(C)C)C(C)C)C(=O)N[C@@H](Cc1c[nH]c2ccccc12)C(=O)N[C@H](CC(C)C)C(=O)N[C@@H](Cc1c[nH]c2ccccc12)C(=O)N[C@@H](C(=O)N[C@@H](Cc1c[nH]c2ccccc12)C(=O)N[C@@H](C(=O)N[C@@H](Cc1c[nH]c2ccccc12)C(=O)NCCO)C(C)C)C(C)C [compound 12707] (For-VGA[dV]A[dL]V[dD](NHMe)W[dL]W[dV]W[dV]W-NHCH2CH2OH)"
measured_property = "antibacterial activity"
test_value = "-"


====

# assay_comment: H+/Na+ transport assay of purified peptides
# measurement_parameters: read-out: EC50, H+/Na+ transport assay; 3rd experiment
Where a SMILES comes first, the peptide text is derived from it. [ ]: non-standard residue; d: D form. The star is where a group is joined. NHCH2CH2OH = OCCN*; For = O=C*
measured_property: pEC50
Interpret pEC50 as the negative base-10 log of the concentration measured in mol/L.

Task: What does the record list as pEC50 for CC(C)C[C@@H](NC(=O)[C@H](C)NC(=O)[C@H](NC(=O)[C@H](C)NC(=O)CNC(=O)[C@@H](NC=O)C(C)C)C(C)C)C(=O)N[C@H](C(=O)N[C@@H](C(=O)N[C@@H](Cc1c[nH]c2ccccc12)C(=O)N[C@@H](C(=O)N[C@@H](Cc1c[nH]c2ccccc12)C(=O)N[C@H](CC(C)C)C(=O)N[C@@H](Cc1c[nH]c2ccccc12)C(=O)N[C@H](CC(C)C)C(=O)N[C@@H](Cc1c[nH]c2ccccc12)C(=O)NCCO)C(C)C)C(C)C)C(C)C [B02] (For-VGA[dV]A[dL]V[dV]W[dV]W[dL]W[dL]W-NHCH2CH2OH) ?
Result: 8.27
